Quick list: pEC50 per entry.
# TARGET_UNDER_TEST: hTREM2 (Homo sapiens)
# Sequence (Q9NZC2 19-230): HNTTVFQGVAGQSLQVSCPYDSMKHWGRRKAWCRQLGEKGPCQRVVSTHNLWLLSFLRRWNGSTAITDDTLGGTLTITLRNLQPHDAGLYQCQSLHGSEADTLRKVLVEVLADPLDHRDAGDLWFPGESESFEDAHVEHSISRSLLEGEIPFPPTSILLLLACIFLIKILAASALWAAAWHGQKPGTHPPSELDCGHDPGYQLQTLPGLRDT
# Sequence (O43914 22-113 partner): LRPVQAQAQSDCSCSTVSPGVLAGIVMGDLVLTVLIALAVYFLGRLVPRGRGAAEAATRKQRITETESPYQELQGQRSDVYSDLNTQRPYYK
# EXPERIMENT_NOTES: TREM2 activity by cellular Syk phosphorylation (AlphaScreen/AlphaLISA) in TREM2/DAP12-HEK cells, used for Examples 1-305
# Format: cell-based
# Set-up: expressed in transfected cells
# CONDITION_INFO: HEK293 Cells
pEC50: −log10 of the molar value.

# annotated cases, reported pEC50 shown
[[record]]
compound = "Cc1nc2nc(N3CCO[C@@H](c4cnn(C)c4)C3)nc(C3CCC(C)(C)CC3)c2nc1C"
outcome_measure = "pEC50"
result = "≥ 7.30"

[[record]]
compound = "Cc1cc2c(-c3ccc(F)cc3F)nc(N3CCO[C@@H](c4cnn(C5CC5)c4)C3)nc2nc1C"
outcome_measure = "pEC50"
result = "≥ 7.30"

[[record]]
compound = "Cc1nc2nc([C@H]3CCO[C@@H](c4cnn(C)c4)C3)cc(-c3ccc(F)cc3F)c2nc1C (single isomer, unassigned)"
outcome_measure = "pEC50"
result = "≥ 7.30"

[[record]]
compound = "CCc1ccc2c(-c3ccc(F)cc3F)nc(N3CCO[C@@H](c4cnn(C)c4)C3)nc2n1"
outcome_measure = "pEC50"
result = "6.30 to 7.30"

[[record]]
compound = "CCc1ccc2c(-c3ccc(Cl)cc3F)nc(N3CCO[C@@H](c4cnn(C)c4)C3)cc2n1"
outcome_measure = "pEC50"
result = "4.00 to 5.52"


Query :: Return reported pEC50; argument: `Cc1cc([C@H]2CN(c3nc(-c4ccc(F)cc4F)c4ccc(C)nc4n3)CCO2)ccn1`
Result :: ≥ 7.30

Query :: Return reported pEC50; argument: Cc1nc2nc([C@@H]3CCO[C@H](c4cnn(C)c4)C3)nc(-c3ccc(Cl)cc3F)c2nc1C [Example 242]
Result :: ≥ 7.30

====

# TARGET_UNDER_TEST: hTREM2 (Homo sapiens)
# EXPERIMENT_NOTES: TREM2 activity by cellular Syk phosphorylation (AlphaScreen/AlphaLISA) in TREM2/DAP12-HEK cells, used for Examples 1-305
# Format: cell-based
# Set-up: expressed in transfected cells
# CONDITION_INFO: HEK293 Cells
OUTCOME_MEASURE: EC50

Query :: Return reported EC50; argument: Cc1nc2cc([C@H]3CCO[C@H](c4cnn(C)c4)C3)nc(-c3ccc(Cl)cc3F)c2nc1C (single isomer, unassigned) [Example 194]
Result :: 0.5 to 3 µM

Query :: Return reported EC50; argument: Cc1ccc2c(C3CCC(F)(F)CC3)nc(N3CCO[C@@H](c4cnn(C5CC5)c4)C3)nc2n1 [Example 143]
Result :: 0.05 to 0.5 µM

Query :: Return reported EC50; argument: Cc1ncc([C@H]2CN(c3nc(-c4ccc(Cl)cc4F)c4cc(C)c(C)nc4n3)CCO2)cn1 (single isomer, unassigned) [Example 107]
Result :: ≤ 0.05 µM

Query :: Return reported EC50; argument: Cc1nc2cc(N3CCO[C@@H](c4cnn(C)c4)C3)cc(-c3ccc(F)cc3F)c2nc1C [Example 164]
Result :: ≤ 0.05 µM

Query :: Return reported EC50; argument: Cc1ccc(-c2nc(N3CCO[C@@H](c4ccnc(C)c4)C3)nc3nc(C)cnc23)c(F)c1 [Example 10]
Result :: ≤ 0.05 µM

Query :: Return reported EC50; argument: CCn1cc([C@H]2CN(c3cc4nc(C)ccc4c(-c4ccc(Cl)cc4F)n3)CCO2)cn1 [Example 239]
Result :: 3 to 100 µM

Query :: Return reported EC50; argument: Cc1nc2nc([C@@H]3CCO[C@@H](c4cnn(C)c4)C3)cc(-c3ccc(Cl)cc3F)c2nc1C [Example 249]
Result :: 0.5 to 3 µM
